# ASSAY INFO: qHTS assay for small molecule disruptors of mitochondrial membrane potential screened against the NCATS CANVASS Library (AID 1347389); note: nearly all actives have a fitted effect of over 60% in size
# STATED CONDITIONS: HepG2 mitochondrial membrane potential, m-MPI red/green ratio, 1.5 h; series mostly up to 46.1 µM
Inconclusive results are not listed. Activity calls are given as the source filed them. Calls come from the whole dose curve; as a rule, active = well fitted inhibition curve with a large enough effect; inconclusive = small, poorly fitted or top-dose-only effect; inactive = flat fitted curve, though single readings scatter. Bridge positions count the residues as written; N and C are the ends. Square brackets hold non-standard residues; d marks the D form. Side chains are listed from the residue outwards. Peptide text beside a SMILES is read from it. * marks the point of attachment. Phg(4-OMe) = COc1ccc([C@H](N)C(=O)O)cc1; d(aIle) = CC[C@H](C)[C@@H](N)C(=O)O; d(aThr) = C[C@@H](O)[C@@H](N)C(=O)O; NMeF = CN[C@@H](Cc1ccccc1)C(=O)O; Isobutyryl = CC(C)C(=O)*
Possible outcomes: label 1 (active), label 0 (inactive)

1) CCC(=O)CCCCC[C@@H]1NC(=O)[C@H]2CCCCN2C(=O)[C@H](C(C)C)NC(=O)[C@H](Cc2cn(OC)c3ccccc23)NC1=O	label 0
2) C/C=C/c1cc2c(c(=O)o1)C(=O)[C@@H](O)[C@H](C)O2	label 0
3) Cc1cc(C)c(O)c(C(=O)CC2CC(=O)NC(=O)C2)c1	label 0
4) CC[C@H](C)[C@H]1NC(=O)[C@@H](NC(=O)C(C)C)[C@@H](C)OC(=O)[C@H](COC(=O)CNC(C)=O)NC(=O)[C@@H]([C@@H](C)O)NC(=O)[C@H](Cc2ccccc2)N(C)C(=O)[C@H](c2ccc(OC)cc2)NC1=O (Isobutyryl-T[d(aIle)][Phg(4-OMe)][NMeF][d(aThr)]S([Gly-Ac]); ester 1-C)	label 0
5) COc1ccc(-c2oc3cc(OC)cc(OC)c3c(=O)c2O)cc1	label 0
6) O=C1CC(c2ccc(O)cc2)Oc2cc(O)ccc21 (stereo not given)	label 1
7) COc1cc(O)c(C(=O)[C@@H]2[C@H](CC=C(C)C)C(C)=CC[C@H]2c2ccccc2)c(O)c1	label 1
8) C[C@@]12CCC[C@@](C)(C(=O)OP(=O)(O)OC[C@H]3O[C@@H](n4cnc5c(N)ncnc54)[C@H](O)[C@@H]3O)[C@H]1C[C@@H](O)[C@@]13C[C@@H](CC[C@@H]21)[C@](C)(O)C3	label 0
9) COc1cc(/C=C/C(=O)OC[C@@H](Cc2ccc(O)c(OC)c2)[C@@H](COC(=O)/C=C/c2ccc(O)c(OC)c2)Cc2ccc(O)c(OC)c2)ccc1O	label 1
10) C/C(=C\[C@H](C)C(=O)C[C@H](O)CC1CC(=O)NC(=O)C1)[C@@H]1OC(=O)CCCC/C=C/C[C@@H](O)[C@@H]1C	label 0
11) C=C[C@]1(C)CC[C@@H]([C@H](C)C(=O)CC=C(C)C)O1	label 0
12) O=C1CC2OCC=C3CN4C5CC3C2[C@@H]2N1c1ccccc1[C@]52C[C@@H]4C1=C[C@H]2C3CC4N(CC[C@@]45c4ccccc4N(C1=O)[C@@H]25)C/C3=C/CO (stereo not given in full)	label 0
13) C=C[C@]1(C)CC[C@@H]([C@H](C)C(=O)/C=C/C(C)(C)O)O1	label 0
14) C=C[C@@]1(C)CC[C@@H]([C@H](C)C(C)=O)O1	label 0
15) C/C=C(/C)c1cc(O)c(C)c2c1Oc1cc(O)cc(C)c1C(=O)O2	label 1

* * *

# ASSAY INFO: Primary qHTS for inhibitors of nuclear receptor binding SET domain protein 2 (NSD2) in an RCH-ACV wild type WT cells (2C) (AID 1645877); note: nearly all actives have a fitted effect of over 70% in size
# STATED CONDITIONS: RCH-ACV NSD2 WT (2C) viability, CellTiter-Glo, 72 h; series mostly up to 44.9 µM
Inconclusive results are not listed. The source made the active and inactive calls. Calls come from the whole dose curve; as a rule, active = well fitted inhibition curve with a large enough effect; inconclusive = small, poorly fitted or top-dose-only effect; inactive = no such curve, though single readings can be large or run the other way. Where a SMILES comes first, the peptide text is derived from it. [ ]: non-standard residue; d: D form. The star is where a group is joined. Benzoyl(4-tBu) = CC(C)(C)c1ccc(C(=O)*)cc1; Lys(Et2) = CCN(CC)CCCC[C@H](N)C(=O)O
Possible outcomes: yes for active, no for inactive

1. COC1CCC(N2C(=O)CNc3ncc(-c4ccc(C(C)(C)O)nc4)nc32)CC1 (stereo not given)	yes
2. CCN(CC)CCCC[C@H](NC(=O)[C@H](CC(C)C)NC(=O)[C@H](C)NC(=O)[C@H](Cc1ccccc1)NC(=O)c1ccc(C(C)(C)C)cc1)C(=O)N[C@@H](CO)C(=O)OC ({Benzoyl(4-tBu)}-FAL[Lys(Et2)]S-OMe)	no
3. Cc1ccc(-c2nc(N)nc3c2nnn3Cc2cccc(CO[C@H]3CCOC3)n2)o1	no
4. CCN1C(=O)CNc2ncc(-c3ccc(-c4ncn[nH]4)nc3C)nc21	yes
5. Cc1[nH]c(/C=C2\C(=O)Nc3ccc(S(=O)(=O)Cc4c(Cl)cccc4Cl)cc32)c(C)c1C(=O)N1CCC[C@@H]1CN1CCCC1	yes
6. CC[C@H]1OC(=O)[C@H](C)C(=O)[C@H](C)[C@@H](O[C@H]2O[C@H](C)C[C@H](N(C)C)[C@H]2O)[C@](C)(OC)C[C@@H](C)C(=O)[C@H](C)[C@H]2N(CCCCn3cnc(-c4cccnc4)c3)C(=O)O[C@]12C	no
7. COc1cc(=C2C=c3ccccc3=N2)[nH]/c1=C/c1[nH]c(C)cc1C	no
8. Cc1cc(C)c(CNC(=O)c2cc(-c3ccc(N4CCN(C)CC4)nc3)cc3c2c(C)cn3C(C)C)c(=O)[nH]1	yes
9. COc1cccc(-c2c(C)n(Cc3c(F)cccc3C(F)(F)F)c(=O)n(C[C@H](NCCCC(=O)O)c3ccccc3)c2=O)c1F	no
10. CC#Cc1cncc(-c2ccc3c(c2)[C@@]2(N=C(C)C(N)=N2)C2(CCC(OC)CC2)C3)c1 (stereo not given in full)	no
11. Cc1cc(C)cc(Oc2ccc(CNC(=O)[C@H](C)N)cc2C)c1	yes
12. CS[C@H]1SC[C@@H]2C(=O)N(C)[C@H](C(C)C)C(=O)OC[C@H](NC(=O)c3cnc4ccccc4n3)C(=O)N[C@H](C)C(=O)N(C)[C@H]1C(=O)N(C)[C@H](C(C)C)C(=O)OC[C@H](NC(=O)c1cnc3ccccc3n1)C(=O)N[C@H](C)C(=O)N2C	yes
13. Cc1cc2cc(Oc3ccnc(Nc4cccc(CS(=O)(=O)NCCN(C)C)c4)n3)ccc2[nH]1	yes
14. COc1nnc2ccc(N3CCC(c4ccc(OCCN5CCN(C)C(=O)[C@H]5C)cc4)CC3)nn12	yes
15. N#Cc1ccc(N(Cc2ccc(Br)cc2)n2cnnc2)cc1	no

* * *

# ASSAY INFO: Primary qHTS for inhibitors of nuclear receptor binding SET domain protein 2 (NSD2) in an isogenic RCH-ACV NSD2 p.E1099K mutant (9B) (AID 1645876); note: nearly all actives have a fitted effect of over 70% in size
# STATED CONDITIONS: RCH-ACV (leukaemia line) NSD2 E1099K (9B) viability, CellTiter-Glo, 72 h; series mostly up to 44.9 µM
Records with an inconclusive call do not appear. Calls of active or inactive are those of the source. Calls come from the whole dose curve; as a rule, active = well fitted inhibition curve with a large enough effect; inconclusive = small, poorly fitted or top-dose-only effect; inactive = flat fitted curve, though single readings scatter.
Possible outcomes: T for active, F for inactive

1. COc1cc(C(=O)O)ccc1NC(=O)[C@@H]1N[C@@H](CC(C)(C)C)[C@](C#N)(c2ccc(Cl)cc2F)[C@H]1c1cccc(Cl)c1F	T
2. C[C@H]1CNC(=O)c2cnn3ccc(nc23)N[C@H](C)c2cc(F)ccc2O1	T
3. Nc1nc(F)nc2c1ncn2[C@@H]1O[C@H](COP(=O)(O)O)[C@@H](O)[C@@H]1O	T
4. COc1ccc(CNC(=O)c2cc(-c3cncc(Cl)c3)cnc2-c2ccccn2)nc1OC	F
5. CC(C)(O)c1coc(S(=O)(=O)NC(=O)Nc2c3c(cc4c2CCC4)CCC3)c1	F
6. O=C(O)/C(S)=C/c1ccc(I)cc1	F
7. O=C1NC(=O)[C@@H](c2cn3c4c(cccc24)CCC3)[C@@H]1c1c[nH]c2ccccc12	T
8. COC1CC(C(=O)c2ccc3c(N)ncc(-c4ccc(-c5cnn(C)c5)cc4)c3n2)C1 (stereo not given)	T
9. C=C1CCC[C@]2(C)C=C3OC(=O)C(C)=C3C[C@@H]12	F
10. OC1CCC(Oc2cccc3cnc(Nc4ccc5nc[nH]c5c4)nc23)CC1 (stereo not given)	T
11. COC(=O)C1=C(C)NC(c2ncc(F)cc2F)=N[C@H]1c1ccc(F)cc1Cl	T
12. CC(/C=C1\SC(=S)N(CC(=O)O)C1=O)=C\c1ccccc1	F
13. CC(=O)N1CCN(c2ccc(NC(=O)Cc3cnc(-c4ccnc(F)c4)c(C)c3)nc2)CC1	F
14. CC/C(=C(/c1ccc(O)cc1)c1ccc(OCCNC)cc1)c1ccccc1	T
15. N=C1CCCN1Cc1[nH]c(=O)[nH]c(=O)c1Cl	F
16. COc1cc(C(=O)NC(N)=Nc2ccc(C)c(NC(=O)c3ccc(-c4ccccc4)cc3)c2)cc(OC)c1OC	T
17. O=C1OC(COc2ccccc2[N+](=O)[O-])CC1Cc1ccccc1 (stereo not given)	F
18. COC[C@@H](c1ccc(C(F)(F)F)cc1)N1CCN(C2(C)CCN(C(=O)c3c(C)ncnc3C)CC2)C[C@@H]1C	F
19. O=C(/C=C/c1ccc2ccc(C(F)(F)F)cc2n1)c1ccncc1	T
20. CSC[C@H]1CN(Cc2c[nH]c3c(N)ncnc23)C[C@@H]1O	F
